Test system: Enterococcus faecium
assay-comment: Potentiation of tetracycline-induced antibacterial activity against Enterococcus faecium ATCC 700221 assessed as minimum modulatory concentration up to 32 uM measured after 16 hrs in presence of MIC/4 tetracycline
Type: functional
particulars: ATCC 700221, 16 h, read-out: MEC
Each entry below carries its reported minimal effective concentration.
measurement-name: minimal effective concentration (µM)

In [3]: df
Out[3]:
                               smiles_input                 measurement_name  censor_symbol  reported_value
 0  COc1cccc(-c2cc(C(=O)[O-])c(O)c[n+]2C)c1  minimal effective concentration              >              32
 1           O=C(O)c1cc(-c2ccc(F)cc2F)ncc1O  minimal effective concentration              =               4
 2               O=C(O)c1ccnc(Cc2ccccc2)c1O  minimal effective concentration              >              32
 3          Cc1cc(C(=O)O)c(O)c(Cc2ccccc2)n1  minimal effective concentration              >              32
 4            Cc1nc(-c2ccccc2)cc(C(=O)O)c1O  minimal effective concentration              >              32
 5               O=C(O)c1cc(-c2ccccc2)ncc1O  minimal effective concentration              >              32
 6           O=C(O)c1cc(-c2ccc(F)cc2F)ccc1O  minimal effective concentration              >              32
 7      C[n+]1ccc(C(=O)[O-])c(O)c1Cc1ccccc1  minimal effective concentration              >              32
 8            Cc1nc(-c2ccccc2)c(O)cc1C(=O)O  minimal effective concentration              =               1
 9    O=C(O)c1cc(O)c(-c2ccccc2)nc1-c1ccccc1  minimal effective concentration              =               2
10             O=C(O)c1cnc(-c2ccccc2)c(O)c1  minimal effective concentration              =               1
11               O=C(O)c1cc(O)cnc1-c1ccccc1  minimal effective concentration              =               4
12      C[n+]1cc(O)c(C(=O)[O-])cc1-c1ccccc1  minimal effective concentration              >              32
13    O=C(O)c1cc(-c2ccccc2)nc(-c2ccccc2)c1O  minimal effective concentration              =               2
14         COc1cccc(-c2cc(C(=O)O)c(O)cn2)c1  minimal effective concentration              >              32
15               O=C(O)c1ccnc(-c2ccccc2)c1O  minimal effective concentration              =               2
16              O=C(O)c1cnc2c(F)cc(F)cc2c1O  minimal effective concentration              =               4
